- Test system: SF-539 CNS
- ASSAY EXPLANATION: NCI tumour cell line growth inhibition, 48 h

| COMPOUND | TGI |
| --- | --- |
| O=C(O)c1ccccc1C1CCCc2c1[nH]c1ccccc21 (centres undefined) | > 100 µM |
| COc1nc(-c2cn(S(=O)(=O)c3ccc(C)cc3)c3ccc(Br)cc23)cc(C(F)(F)F)c1C#N | > 100 µM |
| Cc1ccc(C[N+](C)(C)N)cc1C | > 10 µM |
| CON(C)C(=O)CCCO | > 100 µM |

* * *

- Tested on: 786-0 renal
- ASSAY EXPLANATION: NCI tumour cell line growth inhibition, 48 h
Documented TGI across a set of compounds
VALUE TYPE: TGI (µM)

| SMILES REPR | VALUE TYPE | LT GT EQ | NUMERIC READOUT |
| --- | --- | --- | --- |
| CCN(CC)CCCNc1nc2ccccc2[n+]([O-])n1 | TGI | > | 100 |
| COc1cc2c[n+]3ccc4cc(OC)c(OC)cc4c3cc2cc1O | TGI | > | 100 |
| COC(=O)c1c2c(c[n+]([O-])c1C)C(=O)C=C(NCc1ccccc1)C2=O | TGI | = | 1.22 |
| COc1ccc2[nH]c3c(C)c4ccnc(NCCCN(C)CCCNc5ccc6nnn7c8ccccc8c(=O)c5c67)c4c(C)c3c2c1 | TGI | = | 1.69 |

* * *

- System: A498 renal
- ASSAY EXPLANATION: NCI tumour cell line growth inhibition, 48 h
Documented TGI across a set of compounds
VALUE TYPE: TGI

| SMILES REPR | TARGET OF ASSAY | RESULT |
| --- | --- | --- |
| CCCCCCCCCCCCC[N+](C)(C)Cc1ccccc1 | A498 renal | 5.01 µM |
| CC1(C)CCC(S(=O)(=O)c2ccc3c(c2)/C(=N\O)c2cc(S(=O)(=O)N4CCN(c5ccc(F)cc5O)CC4)ccc2-3)CC1 | A498 renal | 2.63 µM |
| Cc1cc2c(c(C(N)=O)c1C)-c1cccc(Cl)c1C2=O | A498 renal | > 100 µM |
| c1cc(N2CCCC2)c2nc(-c3[nH]ncc3Nc3ncnc4[nH]ccc34)[nH]c2c1 | A498 renal | 0.055 µM |

* * *

- Tested on: SK-MEL-28 melanoma
- ASSAY EXPLANATION: NCI tumour cell line growth inhibition, 48 h

| COMPOUND | TGI |
| --- | --- |
| CCc1c2c(nc3ccc(O)cc13)-c1cc3c(c(=O)n1C2)COC(=O)[C@]3(O)CC | > 19.7 µM |
| CCNC(=S)NNC(=O)c1nsc2ccccc12 | > 100 µM |
| CNC(=O)CCC(NC(=O)OC(C)(C)C)C(=O)NC(Cc1ccc(NC(=O)CCCCC(C)=O)cc1)C(=O)NCC(=O)NC (centres undefined) | > 100 µM |
| CCCCC1=C(Br)C(=C(Br)Br)OC1=O | 7.78 µM |

* * *

- Tested on: HCT-116 colon
- ASSAY EXPLANATION: NCI tumour cell line growth inhibition, 48 h
Documented TGI across a set of compounds
VALUE TYPE: TGI

| COMPOUND | RESULT |
| --- | --- |
| C=C(Br)CN(C)CC(=C)Br | > 100 µM |
| COC(=O)NC(Nc1ccc(Cl)cc1Cl)(C(F)(F)F)C(F)(F)F | > 100 µM |
| N#CCCC(CC#N)N1CCN(C(CC#N)CCC#N)CC1 (stereo not drawn) | > 100 µM |

* * *

- Test system: CCRF-CEM leukemia
- ASSAY EXPLANATION: NCI tumour cell line growth inhibition, 48 h
Documented TGI across a set of molecules

| SMILES REPR | TGI |
| --- | --- |
| O=c1c(O)c(O)c1=O.[NH2-].[NH2-].[NH2-].[NH2-].[NH2-].[Ru+5] | > 100 µM |
| Cc1ccc(N(C)S(=O)(=O)c2ccc([N+](=O)[O-])cc2)cc1 | > 100 µM |
| COc1cc(C(=O)/C=C/c2c(-c3cccs3)nc3sc(C)cn23)cc(OC)c1OC | > 100 µM |

* * *

- Test system: OVCAR-3 ovarian
- ASSAY EXPLANATION: NCI tumour cell line growth inhibition, 48 h

| COMPOUND | TGI |
| --- | --- |
| O=c1[nH]c(=O)n(C2OC(CO)C(N(O)Cc3ccc(F)cc3)C2O)cc1Br (configuration not stated) | > 100 µM |
| c1cc(N2CCCC2)c2nc(-c3[nH]ncc3Nc3ncnc4[nH]ccc34)[nH]c2c1 | 0.663 µM |
| CCCCC1=C(Br)C(=C(Br)Br)OC1=O | 6.05 µM |
| COc1cc(/C=N/N=C(\N)NO)cc(Cl)c1O | > 100 µM |
| O=C(C(=NC12CC3CC(CC(C3)C1)C2)NNc1ccc([N+](=O)[O-])cc1[N+](=O)[O-])C(Br)C(=O)c1ccccc1 (configuration not stated) | 8.83 µM |
| COC(O)C12OC3CO[Si](C(C)C)(C(C)C)O[Si](C(C)C)(C(C)C)OC3C1Oc1nc(=O)ccn12 (configuration not stated) | 23.5 µM |
| O=[N+]([O-])C(=C1NCCN1)/C(Cl)=C(/Cl)N1CCOCC1 | > 100 µM |
| CC(=O)OC1C[C@@H](C)C2(C[C@H](O)c3ccoc3)C(=O)OC[C@]13C2CCC(O)C31CO1 (some centres not stated) | > 100 µM |
| CC(=O)Nc1ccc(-c2csc(Nc3ccc(-c4csc(-c5ccccc5)n4)cc3)n2)cc1 | > 50 µM |
| COc1cc(-n2cncc2-c2ccc3ccccc3c2)cc(OC)c1OC | > 100 µM |
| COc1cc(OC)cc(Oc2nc3cc(N)cc(N)c3nc2-c2ccccc2)c1 | 8.65 µM |
| COc1ccc(/C=C/C(=O)C(C)C)cc1 | 61.4 µM |
| C=CCNC(=O)/C=C\C(=O)O | > 100 µM |
| CCCCCCCCCCCCCCCCP(=O)(OC)OC | 31.9 µM |
| CC(C)(C)N=Cc1ccccc1[O-].CC(C)(C)N=Cc1ccccc1[O-].[Co+2] | > 100 µM |
| O=C1CNc2cc(N3CCN(c4ccccc4)CC3)ccc2N1 | > 100 µM |
| O=C(OC(CNc1c(C(=O)c2ccccc2)c(=O)n(Cc2ccccc2)c(=O)n1Cc1ccccc1)CN1CCOCC1)c1ccccc1 (configuration not stated) | > 100 µM |

* * *

- System: SR leukemia
- ASSAY EXPLANATION: NCI tumour cell line growth inhibition, 48 h
Documented TGI across a set of molecules
VALUE TYPE: TGI

| SMILES REPR | RESULT |
| --- | --- |
| Nc1ccc2c(c1)Cc1cc(Cl)c(Cl)cc1-2 | > 100 µM |
| COc1ccc(Nc2nc3cc(C(F)(F)F)ccc3nc2C(=O)O)cc1OC | 77 µM |
| COc1ccc(-c2cc(=O)c3c(O)c(OC)c(O)c(OC)c3o2)cc1OC | > 100 µM |

* * *

Documented TGI across a set of molecules
- Test system: RXF 393 renal
- ASSAY EXPLANATION: NCI tumour cell line growth inhibition, 48 h
VALUE TYPE: TGI

| MOLECULE | VALUE TYPE | RESULT |
| --- | --- | --- |
| O=S(=O)(O)c1ccc(N=Nc2ccc(N=Nc3c(O)ccc4cc(S(=O)(=O)O)ccc34)cc2)cc1 | TGI | > 100 µM |
| S=C(Nc1c2c(nc3ccccc13)CCCC2)Nc1c2c(nc3ccccc13)CCCC2 | TGI | > 100 µM |
| CN(C)CCCNC(=O)CCNC(=O)c1cc(NC(=O)c2cc(NC(=O)c3cc(NC(=O)CCCNC(=O)c4cc(NC(=O)c5cc(NC(=O)c6nccn6C)cn5C)cn4C)cn3C)cn2C)cn1C | TGI | > 100 µM |
| CCN(CC)c1ccc(N=O)cc1 | TGI | 7.45 µM |
| N#CCCC(CC#N)N1CCN(C(CC#N)CCC#N)CC1 (stereo unspecified) | TGI | > 100 µM |
| Cc1nc(-c2nc(C)c(C(=O)/C=C/c3ccc(N(C)C)cc3)s2)sc1C(=O)/C=C/c1ccc(N(C)C)cc1 | TGI | > 100 µM |
| O=c1oc2ccccc2c(O)c1/C=N/C(=S)Nc1ccccc1 | TGI | 0.833 µM |
| C/C(=N\N(C)C)C(CN1CCCCC1)C(c1ccccc1)c1c(O)c2ccccc2oc1=O (stereo unspecified) | TGI | > 100 µM |
| CC(=O)OCC1OC(OC2=C(CC=C(C)C)C(=O)c3ccccc3C2=O)C(OC(C)=O)C(OC(C)=O)C1OC(C)=O (stereo unspecified) | TGI | 8.32 µM |
| CON(C)C(=O)CCCO | TGI | > 100 µM |
| Nc1nc(N)nc(-c2ccccc2NS(=O)(=O)c2ccc([N+](=O)[O-])cc2)n1 | TGI | > 100 µM |
